Where do these numbers come from? They come from patent US20200024330A1.

# SYSTEM TESTED: HIV-1 JR-CSF Env V292A (HIV-1 JR-CSF) (UniProt P20871)
# RUN DESCRIPTION: cell-based or functional assay

{"columns": ["BINDER", "Fold IC50 increase relative to wild-type (fold)"],
 "data": [
  ["PGT-130 (antibody, V domains shown) VH: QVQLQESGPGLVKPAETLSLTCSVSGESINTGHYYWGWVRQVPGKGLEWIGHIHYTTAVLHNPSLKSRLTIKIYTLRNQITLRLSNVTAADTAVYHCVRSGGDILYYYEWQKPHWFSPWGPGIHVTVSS VL: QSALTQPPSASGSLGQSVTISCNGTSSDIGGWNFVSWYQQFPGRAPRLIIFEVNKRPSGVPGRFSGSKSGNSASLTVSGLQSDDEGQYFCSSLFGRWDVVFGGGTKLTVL", 0.9],
  ["PGT-131 (antibody, V domains shown) VH: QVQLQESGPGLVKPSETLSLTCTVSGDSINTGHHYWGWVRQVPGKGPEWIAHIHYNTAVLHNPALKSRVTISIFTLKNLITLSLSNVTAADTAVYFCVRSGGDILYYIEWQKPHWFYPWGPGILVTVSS VL: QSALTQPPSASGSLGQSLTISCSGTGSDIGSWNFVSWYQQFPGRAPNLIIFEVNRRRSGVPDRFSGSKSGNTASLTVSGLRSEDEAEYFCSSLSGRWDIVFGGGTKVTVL", 1.4],
  ["PGT-128 (antibody, V domains shown) VH: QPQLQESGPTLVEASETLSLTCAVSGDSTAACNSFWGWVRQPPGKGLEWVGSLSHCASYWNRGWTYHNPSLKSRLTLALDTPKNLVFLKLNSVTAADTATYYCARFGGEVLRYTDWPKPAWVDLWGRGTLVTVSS VL: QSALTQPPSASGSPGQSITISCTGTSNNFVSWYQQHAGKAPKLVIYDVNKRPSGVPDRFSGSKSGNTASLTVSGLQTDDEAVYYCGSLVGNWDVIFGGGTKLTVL", 2.1]
]}
